assayedTarget: WT STING (Homo sapiens, UniProt Q86WV6, H232R)
Sequence (Q86WV6 140-343 H232R): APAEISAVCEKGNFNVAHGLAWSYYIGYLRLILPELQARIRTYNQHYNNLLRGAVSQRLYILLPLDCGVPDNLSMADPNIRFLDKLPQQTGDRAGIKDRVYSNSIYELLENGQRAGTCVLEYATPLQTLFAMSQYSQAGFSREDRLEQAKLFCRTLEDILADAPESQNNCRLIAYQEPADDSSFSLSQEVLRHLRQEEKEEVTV
experimentDescription: Differential scanning fluorimetry (DSF) with WT STING
Format: binding
Set-up: truncated human WT STING or AQ STING (amino acid residues 140-343); 8xHis (N, cleaved yes); SUMO (N, cleaved yes); made in house; host or cells: E. coli Rosetta-gami B (DE3)
cond: thermal shift, truncated human WT STING 0.1 mg/ml, 150 μM CDN; read-out: DSF ΔTm WT STING
endpointName: ΔTm at 150 µM (°C)

- compound: "C#Cc1cn([C@@H]2O[C@@H]3COP(=O)(O)OC4C(O)[C@@H](COP(=O)(O)OC3C2O)C[C@H]4n2cnc3c(=O)[nH]c(N)nc32)c2ncnc(N)c12 (stereo partly shown)"
  ΔTm at 150 µM [°C]: 4.4
- compound: "Cc1cn([C@@H]2O[C@@H]3COP(=O)(O)OC4C(O)[C@@H](COP(=O)(O)OC3C2O)C[C@H]4n2cnc3c(=O)[nH]cnc32)c2ncnc(N)c12 (stereo partly shown)"
  ΔTm at 150 µM [°C]: 6.3

[1] Nc1nc2c(ncn2[C@@H]2C[C@@H]3COP(=O)(O)OC4C(O)[C@H](n5cnc6c(N)ncnc65)O[C@@H]4COP(=O)(O)OC2C3O)c(=O)[nH]1 (stereo partly shown)
[2] Cc1cn([C@@H]2O[C@@H]3COP(=O)(O)OC4C(O)[C@@H](COP(=O)(O)OC3C2O)C[C@H]4n2cnc3c(=O)[nH]c(N)nc32)c2ncnc(N)c12 (stereo partly shown)
Smaller ΔTm at 150 µM value, 1 vs 2 ? Your answer should be the label of the entry you select.
2
(2: 6 °C, 1: 13.3 °C)

----------
assayedTarget: WT STING (Homo sapiens, UniProt Q86WV6, H232R)
experimentDescription: Differential scanning fluorimetry (DSF) with WT STING
Format: binding
Parameters: truncated human WT STING or AQ STING (amino acid residues 140-343); 8xHis (N, cleaved yes); SUMO (N, cleaved yes); made in house; host or cells: E. coli Rosetta-gami B (DE3)
cond: thermal shift, truncated human WT STING 0.1 mg/ml, 150 μM CDN; read-out: DSF ΔTm WT STING
endpointName: ΔTm at 150 µM (°C)

Worked cases, answers included:
- compound: "Nc1ncc2ncn([C@@H]3O[C@@H]4COP(=O)(O)OC5C(O)[C@@H](COP(=O)(O)OC4C3O)C[C@H]5n3cnc4c(=O)[nH]c(N)nc43)c2n1 (some centres unmarked) [Compound 106]"
  unitsOfMeasure: "°C"
  ΔTm at 150 µM: 5.5
- compound: "CSc1ncnc2c1ncn2[C@@H]1O[C@@H]2COP(=O)(O)OC3C(O)[C@@H](COP(=O)(O)OC2C1O)C[C@H]3n1cnc2c(=O)[nH]cnc21 (some centres unmarked) [Compound 125]"
  unitsOfMeasure: "°C"
  ΔTm at 150 µM: 4.2
- compound: "Nc1nc2c(ncn2[C@@H]2C[C@@H]3COP(=O)(O)OC4C(O)[C@H](n5cnc6c(Cl)ncnc65)O[C@@H]4COP(=O)(O)OC2C3O)c(=O)[nH]1 (some centres unmarked) [Compound 115]"
  unitsOfMeasure: "°C"
  ΔTm at 150 µM: 6.3

[P] CSc1ncnc2c1ncn2[C@@H]1O[C@@H]2COP(=O)(O)OC3C(O)[C@@H](COP(=O)(O)OC2C1O)C[C@H]3n1cnc2c(=O)[nH]c(N)nc21 (some centres unmarked) [Compound 110]
[Q] Nc1ncnc2c1ncn2[C@@H]1O[C@@H]2COP(=O)(O)OC3C(O)[C@@H](COP(=O)(O)OC2C1O)C[C@H]3n1cnc2c(=O)[nH]cnc21 (some centres unmarked) [Compound 120]
Between these two entries, P and Q , state which has the higher ΔTm at 150 µM. Your answer should be the label of the entry you select.
Q

[a] Nc1nc2c(ncn2[C@@H]2C[C@@H]3COP(=O)(O)OC4C(F)[C@H](n5cnc6c(N)nc(F)nc65)O[C@@H]4COP(=O)(O)OC2C3O)c(=O)[nH]1 (some centres unmarked) [Compound 111]
[b] Nc1ncnc2c1ncn2[C@@H]1O[C@@H]2COP(=O)(S)O[C@@H]3[C@H](F)[C@@H](COP(=O)(S)O[C@H]2[C@H]1F)C[C@H]3n1cnc2c(=O)[nH]cnc21 (single isomer, unassigned) [Compound 128a]
Smaller ΔTm at 150 µM value, a vs b ? Your answer should be the label of the entry you select.
a
